# ASSAYED_TARGET: T1, rhNR10 (recombinant human NR10) (human, UniProt Q8NI17 20-519, limits assumed)
# T1 construct: also called IL-31 receptor; IL31RA
# T1 sequence: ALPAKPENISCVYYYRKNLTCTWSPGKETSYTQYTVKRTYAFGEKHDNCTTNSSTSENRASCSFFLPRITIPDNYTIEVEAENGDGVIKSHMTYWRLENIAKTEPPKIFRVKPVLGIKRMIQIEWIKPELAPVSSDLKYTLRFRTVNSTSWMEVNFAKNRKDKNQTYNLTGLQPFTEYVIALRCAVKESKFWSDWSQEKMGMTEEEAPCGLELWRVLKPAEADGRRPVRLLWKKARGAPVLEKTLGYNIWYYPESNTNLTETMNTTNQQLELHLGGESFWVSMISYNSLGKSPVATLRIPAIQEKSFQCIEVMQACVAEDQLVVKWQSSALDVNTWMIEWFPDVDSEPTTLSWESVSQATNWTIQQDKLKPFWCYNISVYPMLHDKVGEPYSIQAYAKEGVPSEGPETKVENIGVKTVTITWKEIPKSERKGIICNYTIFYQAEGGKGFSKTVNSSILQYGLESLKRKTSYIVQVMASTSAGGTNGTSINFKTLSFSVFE
# EXPERIMENT_NOTES: SPR, Biacore T100; antibody captured on Protein A, rhNR10 as analyte
EXPERIMENTAL_READOUT: koff (s⁻¹)
Please give a number only; it is taken to be in s⁻¹.

H44L17 (H44-M58 / L17) (antibody, V domains shown, also called humanized anti-human NR10 antibody) VH: QVQLVQSGAEVKKPGASVKVSCKASGYTFTGYIMNWVRQAPGQGLEWMGLINPYNGGTDYNPQFQDRVTITADKSTSTAYMELSSLRSEDTAVYYCARDGYDDGPYTLETWGQGTLVTVSS VL: DIQMTQSPSSLSASVGDRVTITCQASEDIYSFVAWYQQKPGKAPKLLIYNAQTEAQGVPSRFSGSGSGTDFTLTISSLQPEDFATYYCQHHYDSPLTFGGGTKVEIKR    0.00072
H42L17 (H42-M58 / L17) (antibody, V domains shown) VH: QVQLVQSGAEVKKPGASVKVSCKASGYTFTGYVLNWVRQAPGQGLEWMGLINPYNGGTDYNPQFQDRVTITADKSTSTAYMELSSLRSEDTAVYYCARDGYDDGPYTLETWGQGTLVTVSS VL: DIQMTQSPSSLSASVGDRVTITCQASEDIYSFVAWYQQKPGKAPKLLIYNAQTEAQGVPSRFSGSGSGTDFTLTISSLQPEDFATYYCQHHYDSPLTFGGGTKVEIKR    0.00037

In the following, a different binder is considered.
Task item: Which koff value belongs to H71L17 (H71-M58 / L17) (antibody, V domains shown) VH: QVQLVQSGAEVKKPGASVKVSCKASGYTFTGYAMNWVRQAPGQGLEWMGLINPYNGGTDYNPQFQGRVTITADESTSTAYMELSSLRSEDTAVYYCARDGYDDGPYTLETWGQGTLVTVSS VL: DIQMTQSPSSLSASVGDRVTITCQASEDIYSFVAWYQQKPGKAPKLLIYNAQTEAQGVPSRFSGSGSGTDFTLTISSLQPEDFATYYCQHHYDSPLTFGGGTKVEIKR ?
Reply: 0.0012
